This collection of values is drawn from the supplement of paper PMC10567573.

B1: S100A14 (parent)
chain: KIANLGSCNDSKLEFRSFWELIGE

- Variants of: B1
- PROTOCOL TEXT: protein stability index of a GFP-peptide fusion (GPS, HEK-293T) (PSI 1-6); higher = more stable;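 note: lentivirally expressed fusions sorted by FACS into six bins by GFP to DsRed ratio, PSI derived from sequencing read proportions per bin multiplied by bin number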
- CONDITION: c terminus: a fixed tail appended
ATTRIBUTE MEASURED: protein stability index
// keep it numeric: no unit symbol after the value

For orientation, consider the following solved cases.
   mutant       attribute_measured  observed_result
0    I22V  protein stability index             1.79
1    S11L  protein stability index             1.52
2    F18M  protein stability index             1.63
3     A3N  protein stability index             1.54
4    S11D  protein stability index             1.89
5    L21D  protein stability index             2.57

Prompt line: Endpoint output: protein stability index of `G6M` . Value?
Response line: 2.51

Prompt line: So what's the measured protein stability index for this one? `C8E`
Response line: 1.97

Prompt line: Item `I2Y` has what recorded protein stability index?
Response line: 1.57

Prompt line: Any idea what its protein stability index is? The variant is `A3H`
Response line: 2.38

Prompt line: Requested field: protein stability index. Item: `D10C`
Response line: 1.95

Prompt line: What value of protein stability index has been reported for the following variant? `G23R`
Response line: 1.45
